- measured-on: rat frizzled-1 receptor (rat, UniProt Q08463 69-641)
- Sequence (Q08463 69-641): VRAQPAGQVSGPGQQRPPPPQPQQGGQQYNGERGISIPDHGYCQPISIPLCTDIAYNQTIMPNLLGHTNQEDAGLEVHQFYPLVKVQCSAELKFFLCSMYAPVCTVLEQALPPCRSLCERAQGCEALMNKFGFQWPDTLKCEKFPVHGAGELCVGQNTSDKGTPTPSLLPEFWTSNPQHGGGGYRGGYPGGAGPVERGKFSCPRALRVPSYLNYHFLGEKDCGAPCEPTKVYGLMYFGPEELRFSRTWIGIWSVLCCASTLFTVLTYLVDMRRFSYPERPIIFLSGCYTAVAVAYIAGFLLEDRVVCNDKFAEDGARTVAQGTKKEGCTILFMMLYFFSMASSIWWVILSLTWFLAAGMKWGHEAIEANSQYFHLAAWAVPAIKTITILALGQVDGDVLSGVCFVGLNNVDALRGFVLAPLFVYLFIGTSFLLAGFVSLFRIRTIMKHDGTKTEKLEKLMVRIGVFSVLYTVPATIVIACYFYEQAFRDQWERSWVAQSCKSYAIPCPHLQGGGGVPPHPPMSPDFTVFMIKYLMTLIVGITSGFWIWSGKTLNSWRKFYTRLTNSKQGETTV
- protocol-description: cell-based or functional assay
Where no end group is shown, it is not given here.
measured-attribute: % of inhibition of Wnt3a-induced luciferase activity, peptide 1.10^-9 M (%)
The response must be a number in % with no trailing unit.

SNKTSEGMDGSEL [UM206 (C = S)]
0
CNKTSEGADGCEL-NH2 (cysteine pairing not given here) [UM206 (8 M = A)]
67.6
CNKTSEGMDGCAL-NH2 (cysteine pairing not given here) [UM206 (12 E = A)]
65.9

For the next question, use this binder.
Please give measured % of inhibition of Wnt3a-induced luciferase activity, peptide 1.10^-9 M of the following entry: CNKTSEGMDACEL-NH2 (cysteine pairing not given here) [UM206 (10 G = A)] 69.9

Each recorded value in this set is attributed to patent US20120014876A1.
